# Test system: RARg homodimer (NR concentration 270 nM)
# Protocol: PBM binding z-score (relative to random genomic background probes); higher = stronger binding; sequences stand for … in GC…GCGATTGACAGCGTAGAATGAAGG
Recorded PBM binding z-score, one value per entry.
Write the number on its own, no unit after it.

-- ask What PBM binding z-score appears in the records for this sequence with RARg homodimer (NR concentration 270 nM)? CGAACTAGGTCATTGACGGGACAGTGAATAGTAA
-- reply 4.35

-- ask What PBM binding z-score appears in the records for this sequence with RARg homodimer (NR concentration 270 nM)? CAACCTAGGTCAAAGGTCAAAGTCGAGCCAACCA
-- reply 7.77

-- ask What PBM binding z-score appears in the records for this sequence with RARg homodimer (NR concentration 270 nM)? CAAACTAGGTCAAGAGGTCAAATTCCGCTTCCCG
-- reply 7.69

-- ask What PBM binding z-score appears in the records for this sequence with RARg homodimer (NR concentration 270 nM)? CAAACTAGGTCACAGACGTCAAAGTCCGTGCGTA
-- reply 5.14

-- ask What PBM binding z-score appears in the records for this sequence with RARg homodimer (NR concentration 270 nM)? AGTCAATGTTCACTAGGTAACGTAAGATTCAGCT
-- reply 0.455

-- ask What PBM binding z-score appears in the records for this sequence with RARg homodimer (NR concentration 270 nM)? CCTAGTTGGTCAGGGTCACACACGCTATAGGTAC
-- reply 3.38

-- ask What PBM binding z-score appears in the records for this sequence with RARg homodimer (NR concentration 270 nM)? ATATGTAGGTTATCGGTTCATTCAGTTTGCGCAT
-- reply 0.882

-- ask What PBM binding z-score appears in the records for this sequence with RARg homodimer (NR concentration 270 nM)? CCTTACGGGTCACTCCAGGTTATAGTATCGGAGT
-- reply 4.25

-- ask What PBM binding z-score appears in the records for this sequence with RARg homodimer (NR concentration 270 nM)? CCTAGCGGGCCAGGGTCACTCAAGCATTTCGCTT
-- reply 2.4

-- ask What PBM binding z-score appears in the records for this sequence with RARg homodimer (NR concentration 270 nM)? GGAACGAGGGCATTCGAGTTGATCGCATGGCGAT
-- reply 1.52

-- ask What PBM binding z-score appears in the records for this sequence with RARg homodimer (NR concentration 270 nM)? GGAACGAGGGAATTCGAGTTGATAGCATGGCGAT
-- reply -0.201

-- ask What PBM binding z-score appears in the records for this sequence with RARg homodimer (NR concentration 270 nM)? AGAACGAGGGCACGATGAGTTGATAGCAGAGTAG
-- reply 2.42

* * *

# System: THRa homodimer (NR concentration 90 nM)
# Protocol: PBM binding z-score (relative to random genomic background probes); higher = stronger binding; sequences stand for … in GC…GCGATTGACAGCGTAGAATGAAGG
Measurement name: PBM binding z-score
Write the number on its own, no unit after it.

Some sequences with known PBM binding z-score results, for comparison:
INSERT INTO measurements (macromolecule_sequence, value_observed) VALUES
  ('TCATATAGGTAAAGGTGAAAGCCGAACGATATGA', -0.707),
  ('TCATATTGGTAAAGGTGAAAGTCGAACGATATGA', -0.164),
  ('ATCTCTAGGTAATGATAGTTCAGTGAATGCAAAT', 0.35);

-- ask # get_value(readout='PBM binding z-score', item= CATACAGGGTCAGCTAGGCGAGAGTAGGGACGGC )
-- reply 1.01

-- ask # get_value(readout='PBM binding z-score', item= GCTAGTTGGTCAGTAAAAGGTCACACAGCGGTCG )
-- reply 1.78
